List of log10(IC50) values.
Species: Rattus norvegicus
Test summary: In vitro inhibitory concentration that relaxed KCL induced contraction in rat detrusor strip by 50%
Format: functional
Measure name: log10(IC50) (log10 of the value in µM)

Molecule	Observed
CCC/N=c1\c(O)c(O)\c1=N/Cc1ccc(C#N)cc1	1.34
CC(C)(C)/N=c1\c(O)c(O)\c1=N/Cc1ccc(F)cc1Cl	0.15
CCC(C)(C)/N=c1\c(O)c(O)\c1=N/Cc1c(C)cccc1Cl	0.64
Cc1cc(C#N)cc(Cl)c1C/N=c1\c(O)c(O)\c1=N/C(C)C(C)(C)C (stereo not drawn)	0.28
COc1ccc(C/N=c2\c(O)c(O)\c2=N/C(C)(C)C)cc1	0.68
Cc1cc(Cl)cc(Cl)c1C/N=c1\c(O)c(O)\c1=N/C(C)C(C)(C)C (stereo not drawn)	0.99
CC(C)(C)/N=c1\c(O)c(O)\c1=N/Cc1ccccc1F	0.32
CC(C)(C)/N=c1\c(O)c(O)\c1=N/Cc1c(Cl)cccc1Cl	0.04
CCC(C)(C)/N=c1\c(O)c(O)\c1=N/Cc1ccc(F)c(Cl)c1	-0.06
CC(C)(C)/N=c1\c(O)c(O)\c1=N/Cc1ccc(C#N)cc1Cl	-0.85
CC(C)(C)/N=c1\c(O)c(O)\c1=N/Cc1ccc(F)cc1	0.18
CCC(C)(C)/N=c1\c(O)c(O)\c1=N/Cc1ccc(F)cc1F	-0.66
CC(C)(C)/N=c1\c(O)c(O)\c1=N/Cc1ccccc1	0.53
CC[C@H](C)/N=c1\c(O)c(O)\c1=N/Cc1ccc(C#N)cc1	0.34
N#Cc1ccc(CNc2c(NC3CCCC3)c(=O)c2=O)cc1	0.97
CC(C)(C)/N=c1\c(O)c(O)\c1=N/Cc1ccc(Cl)cc1	0.23
N#Cc1ccc(CNc2c(NCC(F)(F)C(F)(F)F)c(=O)c2=O)cc1	1.16
CCC(C)(C)/N=c1\c(O)c(O)\c1=N/Cc1c(C)cccc1C	-0.08
CCC(C)(C)Nc1c(NCc2c(C)cc(Cl)cc2Cl)c(=O)c1=O	-1.00
CCC(C)(C)/N=c1\c(O)c(O)\c1=N/Cc1ccc(C#N)cc1	0.04
CC(C)(C)/N=c1\c(O)c(O)\c1=N/Cc1cccc(F)c1	0.38

Ref: ChEMBL document CHEMBL1132985
